Could you please report measured IC50 of true virus neutralization H1N1 CA/09 for the items listed next?
molecular target: full-length H1 A/California/07/2009 HA expressed on 293T cells (influenza A virus A/California/07/2009 (H1N1)); assay: cell-based or functional assay

Known IC50 of true virus neutralization H1N1 CA/09 results, listed for orientation:
{"BINDER": "S29 (antibody, V domains shown) VH: EVQLVESGGGLVQPGGSLRLSCAASGFTISDYWIHWVRQAPGKGLEWVASIWPSGGYTYYADSVKGRFTISADTSKNTAYLQMNSLRAEDTAVYYCARFNWIVGHYMDYWGQGTLVTVSS VL: DIQMTQSPSSLSASVGDRVTITCRASQDVFGGVAWYQQKPGKAPKLLIYWSSWLYSGVPSRFSGSGSGTDFTLTISSLQPEDFATYYCQQYYDGPITFGQGTKVEIKR", "DATA VALUE": "> 500 µg/mL"}
{"BINDER": "P47 (antibody, V domains shown) VH: EVQLVESGGGLVQPGGSLRLSCAASGFTIGNSGIHWVRQAPGKGLEWVASIWPSGGSTYYADSVKGRFTISADTSKNTAYLQMNSLRAEDTAVYYCARFGHIDGDIMDYWGQGTLVTVSS VL: DIQMTQSPSSLSASVGDRVTITCRASQDVYYYVAWYQQKPGKAPKLLISGSSYLYSGVPSRFSGSGSGTDFTLTISSLQPEDFATYYCQQYYNWPLTFGQGTKVEIKR", "DATA VALUE": "> 500 µg/mL"}
{"BINDER": "P48 (antibody, V domains shown) VH: EVQLVESGGGLVQPGGSLRLSCAASGFTINSWGIHWVRQAPGKGLEWVAGIGPSWGYTSYADSVKGRFTISADTSKNTAYLQMNSLRAEDTAVYYCARFGDGDFDLMDYWGQGTLVTVSS VL: DIQMTQSPSSLSASVGDRVTITCRASQDVWSYVAWYQQKPGKAPKLLISYTSYLYSGVPSRFSGSGSGTDFTLTISSLQPEDFATYYCQQYFNWPITFGQGTKVEIKR", "DATA VALUE": "> 500 µg/mL"}

--- query ---
Task: I am curious: what IC50 of true virus neutralization H1N1 CA/09 value has been reported for S48 (antibody, V domains shown) VH: EVQLVESGGGLVQPGGSLRLSCAVSGFTIGDGSIHWVRQAPGKGLEWVASIGPYGGSTYYADSVKGRFTISADTSKNTAYLQMNSLRAEDTAVYYCARFHYGYWNNMDYWGQGTLVTVSS VL: DIQMTQSPSSLSASVGDRVTITCRASQDVGWWVAWYQQKPGKAPKLLIYGTRWLYSGVPSRFSGSGSGTDFTLTISSVQPEDFATYYCQQYYSGPITFGQGTKVEIKR ?
Output: > 500 µg/mL
